ASSAY_TEXT: solvent given as SMILES
RECORDED_CONDITIONS: in CCOC(C)=O
PARAMETER_MEASURED: emission maximum

Below: 8 compounds and their reported emission maximum.
CCn1c2ccc(/C=C/c3ccc4c(c3)c3cc(-c5nc6ccccc6s5)ccc3n4CC)cc2c2cc(-c3nc4ccccc4s3)ccc21 ... 412 nm
CCC1=C(C)C2=C(C)c3c(C)c(-c4csc(N5CCOCC5)n4)c(C)n3[B-](F)(F)[N+]2=C1C ... 549 nm
CN(CC(O)c1cccc(O)c1)c1ccc([N+](=O)[O-])c(C2CC(c3cccc4ccccc34)=NN2c2ccccc2)c1 (centres undefined) ... 498 nm
CC(C)(C)c1ccc(-c2nc3c4ccc(-c5ccccc5)cc4c4cc(-c5ccccc5)ccc4c3n2-c2ccc(C(C)(C)C)cc2)cc1 ... 388 nm
c1cc2c([nH]c3c4[nH]c5sccc5c4c4nsnc4c23)s1 ... 510 nm
COC(=O)c1nc(-c2ccco2)oc1C ... 304 nm
O=C1c2ccccc2-c2ccc(N3CCOCC3)c3cccc1c23 ... 600 nm
CN(C)c1ccc(C#Cc2ccc(C#N)cc2)cc1 ... 482 nm

Below is a list of compounds. For each, state its recorded emission maximum.
1. COC(=O)C(Cc1ccc2oc(-c3ccc(N(C)C)cc3)nc2c1)NC(=O)OC(C)(C)C (centres undefined)
2. Cc1ccc(C2CC(c3ccc(O)cc3)=NN2c2ccc(S(N)(=O)=O)cc2)cc1 (centres undefined)

Response line:
381.5 nm
415 nm
